Tested on: COLO 205
ASSAY PROTOCOL: NCI tumour cell line growth inhibition, 48 h
The source made the active and inactive calls. Cut-off read from the data, not from the text of the source: active = GI50 up to about 1.1 µM and inactive = higher.
GI50 overview

Previously resolved entries follow.
O=[N+]([O-])c1c(Br)cc(Br)c2c1Nc1c(ccc(Cl)c1Cl)S2 | 11.9 µM (inactive)
O=C1Nc2cccc(C(F)(F)F)c2/C1=N/Nc1ccccc1[N+](=O)[O-] | 29.4 µM (inactive)
COc1ccccc1N1C(=O)/C(=C\c2cc(OC)c(OC)c(OC)c2)S(=O)(=O)C1c1ccccc1 (stereo not drawn) | 26.9 µM (inactive)

What value of GI50 has been reported for the following compound? "O=c1[nH]cnc2[nH]nnc12" 47.1 µM (inactive)

What about this compound? "Cn1nc2ccc3nccc(NCCNCCCl)c3c2n1" > 100 µM (inactive)

What about this compound? C=C1C(OC(C)=O)CC(OC(C)=O)C2(C)C(OC(C)=O)C(OC(C)=O)C3=C(C)C(OC(=O)/C=C/c4ccccc4)CC(C(OC(C)=O)C12)C3(C)C (stereo not drawn) > 100 µM (inactive)

###

GI50 overview
Test system: HCC 2998
ASSAY PROTOCOL: NCI tumour cell line growth inhibition, 48 h
Active and inactive are the calls of the source. Cut-off read from the data, not from the text of the source: active = GI50 up to about 1.1 µM and inactive = higher.

C=C1[C@@H](C)[C@H]2[C@H](Cc3ccccc3)NC(=O)[C@]23OC(=O)/C=C/[C@H](O)CCC[C@@H](C)C/C=C/[C@H]3[C@@H]1O | 50 µM (inactive)
Cc1cc(N(CCC#N)CCC#N)ccc1/C(Sc1ccccc1)=C(\NC(=O)/C=C/c1ccccc1)C(=O)Sc1ccccc1 | 11.4 µM (inactive)
O=C(CN1CCCCC1)Nc1ccc2sc3ccccc3c(=O)c2n1 | 14.8 µM (inactive)

Now for the molecule whose GI50 we want.
What GI50 appears in the records for this molecule with HCC 2998? Cc1cc2nc3c(=O)[nH]c(=O)nc-3n(CC(O)C(O)C(O)CO)c2cc1N (centres undefined) > 100 µM (inactive)

###

Tested on: NCI-H460
ASSAY PROTOCOL: NCI tumour cell line growth inhibition, 48 h
Active and inactive are the calls of the source. No stated cut-off is given here; in the data, active = GI50 up to about 1.1 µM and inactive = higher.
Please state which outcome applies, choosing from active, inactive

Record excerpt, results attached:
C=C[Si](C)(C)COC(=O)/C(C#N)=C/C=C/c1ccccc1 | inactive
CN(C)CCC1(C2=CCCC2)CC/C(=C\c2ccccc2Cl)C1=O (stereo not given) | inactive
COC(=O)/C=C(\S/C(=C(/c1ccccc1)n1cc(C(=O)OC)c(C(=O)OC)n1)c1ccccc1)C(=O)OC | inactive
COc1cc2cc(C(=O)N3CC(CCl)c4c3cc(NC(=O)OCc3ccc([N+](=O)[O-])cc3)c3ccccc43)[nH]c2c(OC)c1OC (stereo not given) | active
O=C(CC(=O)Nc1ccccc1Cl)NNC(Sc1ccccc1)c1cc(/N=N/c2ccc(Br)cc2)ccc1O (stereo not given) | active
NC(=O)CC(N)C(=O)NC(Cc1ccccc1)C(=O)NC(Cc1ccccc1)NC(=O)C(Cc1c[nH]c2ccccc12)C(=O)O (stereo not given) | inactive

Tell me the recorded outcome of this test for "COC(=O)Nc1nc(=O)c2ccccc2[nH]1" . inactive

What about this molecule? CCC/C(=N\NC(=O)c1cc2ccccc2cc1O)C(CC)C(=O)CCC(=O)N(Cc1ccccc1)Cc1ccccc1 (stereo not given) inactive

What about this molecule? "O=C1Nc2c(Cl)cccc2/C1=N/Nc1ccccc1[N+](=O)[O-]" inactive

What about this molecule? "CN(NC(=O)CCCl)C1=NCCN1" inactive

Provenance of the data: ChEMBL document CHEMBL1201862
